TARGET: Voltage-gated inwardly rectifying potassium channel KCNH2 (Homo sapiens, UniProt Q12809); note: in other assays of this panel Not Active means under 50% inhibition at 10 µM
Sequence (Q12809 whole entry): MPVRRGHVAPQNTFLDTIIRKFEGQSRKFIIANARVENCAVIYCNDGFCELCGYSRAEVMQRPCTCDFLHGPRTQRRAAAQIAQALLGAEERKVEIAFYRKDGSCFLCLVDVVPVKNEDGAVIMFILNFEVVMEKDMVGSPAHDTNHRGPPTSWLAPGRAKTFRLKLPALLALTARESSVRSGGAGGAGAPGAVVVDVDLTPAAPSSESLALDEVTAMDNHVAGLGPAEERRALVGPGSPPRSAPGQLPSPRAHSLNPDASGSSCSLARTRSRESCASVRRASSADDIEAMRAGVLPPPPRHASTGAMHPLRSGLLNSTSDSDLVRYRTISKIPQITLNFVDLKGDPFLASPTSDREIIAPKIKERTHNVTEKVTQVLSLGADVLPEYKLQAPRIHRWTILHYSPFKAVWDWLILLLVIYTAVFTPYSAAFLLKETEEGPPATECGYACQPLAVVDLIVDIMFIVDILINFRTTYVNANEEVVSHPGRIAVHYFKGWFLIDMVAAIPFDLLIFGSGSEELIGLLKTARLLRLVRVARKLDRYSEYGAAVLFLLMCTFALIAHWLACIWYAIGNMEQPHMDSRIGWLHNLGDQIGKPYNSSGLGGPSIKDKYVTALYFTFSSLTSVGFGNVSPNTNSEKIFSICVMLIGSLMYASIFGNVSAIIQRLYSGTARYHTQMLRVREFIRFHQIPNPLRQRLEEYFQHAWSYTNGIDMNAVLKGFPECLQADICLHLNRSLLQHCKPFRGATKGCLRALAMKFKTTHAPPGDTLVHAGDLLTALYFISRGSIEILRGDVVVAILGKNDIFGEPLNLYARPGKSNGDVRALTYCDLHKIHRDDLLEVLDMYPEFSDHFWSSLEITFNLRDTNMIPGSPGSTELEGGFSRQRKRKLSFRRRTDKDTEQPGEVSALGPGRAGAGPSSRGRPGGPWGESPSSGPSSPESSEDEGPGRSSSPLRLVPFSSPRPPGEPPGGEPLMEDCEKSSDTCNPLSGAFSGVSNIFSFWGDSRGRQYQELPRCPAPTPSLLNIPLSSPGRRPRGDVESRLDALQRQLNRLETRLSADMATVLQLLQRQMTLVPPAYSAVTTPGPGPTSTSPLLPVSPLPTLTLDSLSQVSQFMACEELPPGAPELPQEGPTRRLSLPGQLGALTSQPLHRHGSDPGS
COND: hek293

COMPOUND: C[C@@H]1C[C@H]2[C@@H]3CCC4=CC(=O)C=C[C@]4(C)[C@@]3(F)[C@@H](O)C[C@]2(C)[C@H]1C(=O)CO [DESOXIMETASONE]
TARGET: Voltage-gated inwardly rectifying potassium channel KCNH2 (Homo sapiens, UniProt Q12809); note: in other assays of this panel Not Active means under 50% inhibition at 10 µM
IC50: Not Active
--
COMPOUND: CCn1cc(C(=O)O)c(=O)c2cnc(N3CCCC3)nc21 [PIROMIDIC ACID]
TARGET: Voltage-gated inwardly rectifying potassium channel KCNH2 (Homo sapiens, UniProt Q12809); note: in other assays of this panel Not Active means under 50% inhibition at 10 µM
IC50: Not Active
--
COMPOUND: CC[C@@H](C(=O)[C@@H](C)[C@@H](O)[C@H](C)[C@@H]1O[C@@H]([C@@H](CC)C(=O)O)CC[C@@H]1C)[C@H]1O[C@]2(C=C[C@@H](O)[C@]3(CC[C@@](C)([C@H]4CC[C@](O)(CC)[C@H](C)O4)O3)O2)[C@H](C)C[C@@H]1C [SALINOMYCIN]
TARGET: Voltage-gated inwardly rectifying potassium channel KCNH2 (Homo sapiens, UniProt Q12809); note: in other assays of this panel Not Active means under 50% inhibition at 10 µM
IC50: Not Active

----------
TARGET: Alpha-1A adrenergic receptor (Rattus norvegicus, UniProt P43140)
Sequence (P43140 whole entry): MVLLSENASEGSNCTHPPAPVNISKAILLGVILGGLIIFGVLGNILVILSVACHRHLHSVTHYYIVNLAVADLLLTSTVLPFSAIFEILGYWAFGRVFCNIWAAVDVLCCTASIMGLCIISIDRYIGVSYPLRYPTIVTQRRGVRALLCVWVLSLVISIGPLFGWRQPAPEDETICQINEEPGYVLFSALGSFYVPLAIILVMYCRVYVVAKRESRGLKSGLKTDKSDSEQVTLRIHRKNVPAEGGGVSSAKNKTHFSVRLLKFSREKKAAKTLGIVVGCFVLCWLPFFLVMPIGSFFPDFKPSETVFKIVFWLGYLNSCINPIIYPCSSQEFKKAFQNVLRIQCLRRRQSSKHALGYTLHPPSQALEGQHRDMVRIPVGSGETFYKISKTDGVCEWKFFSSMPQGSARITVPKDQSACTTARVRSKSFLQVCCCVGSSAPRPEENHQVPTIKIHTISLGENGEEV
PROTOCOL_SUMMARY: DRUGMATRIX: Alpha-1A adrenergic receptor radioligand binding (ligand: prazosin)
Format: cell membranes, Wistar, Submaxillary gland, Membrane
COND: Not Active = under 50% inhibition at 10 µM; read-out: IC50
pIC50: −log10 of the molar value.
Label Met for high-side pIC50 (at or above 6) and Not met for low-side pIC50 (below it).

COMPOUND: COc1cc(N)c(Cl)cc1C(=O)NC1CCN(CCCOc2ccc(F)cc2)CC1OC (stereo not given) [CISAPRIDE]
ANSWER_LABEL: Met
//
COMPOUND: Brc1c(NC2=NCCN2)ccc2nccnc12
ANSWER_LABEL: Not met
//
COMPOUND: CC[C@H]1CN2CCc3cc(OC)c(OC)cc3[C@@H]2C[C@@H]1C[C@H]1NCCc2cc(OC)c(OC)cc21
ANSWER_LABEL: Not met

----------
TARGET: D(4) dopamine receptor (Homo sapiens)
Sequence (P21917 whole entry): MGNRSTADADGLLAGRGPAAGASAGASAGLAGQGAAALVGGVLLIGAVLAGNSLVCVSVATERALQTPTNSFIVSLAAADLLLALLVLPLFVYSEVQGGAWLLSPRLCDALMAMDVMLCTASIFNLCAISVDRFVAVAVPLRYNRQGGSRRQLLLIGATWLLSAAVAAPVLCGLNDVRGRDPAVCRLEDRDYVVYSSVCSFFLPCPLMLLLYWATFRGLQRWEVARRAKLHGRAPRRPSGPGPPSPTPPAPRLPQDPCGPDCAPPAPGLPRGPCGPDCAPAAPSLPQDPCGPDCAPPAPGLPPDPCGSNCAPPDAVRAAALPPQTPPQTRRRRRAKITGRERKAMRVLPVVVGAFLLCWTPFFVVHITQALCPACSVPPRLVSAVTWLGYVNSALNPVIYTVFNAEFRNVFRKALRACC
PROTOCOL_SUMMARY: DRUGMATRIX: Dopamine D4.2 radioligand binding (ligand: [3H] Spiperone)
Format: cell membranes, CHO-K1, Membrane
COND: cho-k1; Not Active = under 50% inhibition at 10 µM
TEST_READOUT: IC50

COMPOUND: CC(=O)O[C@H]1C(=O)[C@@]2(C)[C@H]([C@H](OC(=O)c3ccccc3)[C@]3(O)C[C@H](OC(=O)[C@H](O)[C@@H](NC(=O)c4ccccc4)c4ccccc4)C(C)=C1C3(C)C)[C@]1(OC(C)=O)CO[C@@H]1C[C@@H]2O
REPORTED_VALUE: Not Active
--
COMPOUND: CC(=O)[C@@]1(O)CC[C@H]2[C@@H]3CCC4=CC(=O)CC[C@]4(C)[C@H]3CC[C@@]21C [HYDROXYPROGESTERONE]
REPORTED_VALUE: Not Active
--
COMPOUND: CN(C)[C@@H]1C(O)=C(C(N)=O)C(=O)[C@@]2(O)C(O)=C3C(=O)c4c(O)ccc(Cl)c4[C@@](C)(O)[C@H]3C[C@@H]12
REPORTED_VALUE: Not Active
--
COMPOUND: O=c1cc(N2CCOCC2)oc2c(-c3ccccc3)cccc12
REPORTED_VALUE: Not Active
--
COMPOUND: OC(CCCN1CCCCC1)(c1ccccc1)c1ccccc1
REPORTED_VALUE: Not Active
--
COMPOUND: CCN(CC)CCOc1ccc(/C(=C(/Cl)c2ccccc2)c2ccccc2)cc1
REPORTED_VALUE: Not Active
--
COMPOUND: COc1ccc(CCN(C)CCCC(C#N)(c2ccc(OC)c(OC)c2)C(C)C)cc1OC (centres undefined)
REPORTED_VALUE: Not Active
--
COMPOUND: COc1ccc(C(=O)N2CCCC2=O)cc1
REPORTED_VALUE: Not Active
--
COMPOUND: COC(=O)Nc1nc2ccc([S+]([O-])c3ccccc3)cc2[nH]1 (centres undefined)
REPORTED_VALUE: Not Active
